- run_description: amyloid nucleation score (Sup35N fusion, yeast selection) (log enrichment); library NNK2; higher = more nucleation; inactive = no reads after selection;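 also: zero at mode of non-aggregating sequences after 7 days selection at 30°C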
Please enter t where amyloid nucleation score is greater than or equal to 0.6, and f where it is lower.

Please review the following examples before continuing.
query: Determine whether this substance has amyloid nucleation score no lower than 0.6: VVNVVSGYGAE
result: t

query: Is amyloid nucleation score for CVVKDSSTVFM at or above 0.6?
result: f

query: Check this substance for amyloid nucleation score at or above 0.6: HSHVRLWSLRFDAHPNWHDK
result: t

query: hey, is amyloid nucleation score for this one >= 0.6? RGFRGRFVFGRT
result: f

New cases:
query: Decide: is the reported value of amyloid nucleation score for KGMLGAASHSQIKFVCVFSW equal to or greater than 0.6?
result: f

query: Form field: amyloid nucleation score at least 0.6? Entry: SSPLVNRFPEGVYMNCK
result: f

query: Please tell me: is the substance WSYRTESIHLYYLRPIFKIV at or over 0.6 in terms of amyloid nucleation score?
result: f

query: Hello, I need to know if NKMEDHGMWDLIAYRGVIPL has measured amyloid nucleation score not below 0.6. Thanks!
result: f

query: Assess whether reported amyloid nucleation score for SGYDFHVRMTCCIWH sits at 0.6 or higher.
result: t

query: Say whether VSRFYCKYYSAQWIRYGRAC shows amyloid nucleation score of 0.6 or more.
result: f

query: # bool: amyloid nucleation score of GNEVRGNTMVENPTMSLVMG >= 0.6
result: t

query: // inclusive: amyloid nucleation score at least 0.6? input: KEMARTSSSRCDITLQWPAS
result: f

query: Entry RCSDRKRRFSYSNWYGHGYG : is its amyloid nucleation score no less than 0.6?
result: f

query: // inclusive: amyloid nucleation score at least 0.6? input: GMKCAAFSESVNHRLQFNGT
result: f

query: Does the reported amyloid nucleation score for AVMTRFEDVYDCAVSTCKMG fall at or above the 0.6 mark?
result: f

query: Determine whether this substance has amyloid nucleation score no lower than 0.6: GFDYLIFLNKHRLVMSWSFE
result: f

query: Please check the record EYTHRSERFIMGNVISKVRM and state if its amyloid nucleation score is at or above 0.6.
result: f
